- tgt: influenza A neuraminidase
- method notes: Radiolabeled-substrate neuraminidase inhibition assay (hydrolysis of 14C-labeled αDNeuAc(2-6)βDGal(1-4)DGlcNAc, A)
- conditions used: substrate A at 1.0-8.0 mM; inhibitor 0.07, 0.14, 0.28 mM; 100 mM NaOAc-5 mM Na2HPO4 pH 5.5; 37° C.; from Lineweaver-Burk plots; read-out: inhibition constant Ki
Quick list: Ki per entry.

| molecule | Ki |
| --- | --- |
| CC(=O)N[C@H]1[C@H]([C@H](O)[C@H](O)CO)O[C@@](S[C@H](C)[C@H]2OC(O)[C@H](O)[C@@H](O)[C@H]2O)(C(=O)O)C[C@@H]1N (some centres unmarked) [Compound 14] | 51 µM |
| CC(=O)NC1C(N)CC(OCC2OC(O)C(O)C(O)C2O)(C(=O)O)OC1C(O)C(O)CO (centres unmarked) [Compound 12] | 100 µM |
